target: GLUT1 (Homo sapiens, UniProt P11166); construct: endogenous in cells; assay: Indirect measurement of GLUT activity by quantification of intracellular ATP levels: glucose induced ATP increase (GLUT1 inhibition); conditions: DLD1 cells; 1 mM glucose, 1 uM Rotenone, 15 min; CellTiter-Glo ATP levels; IC50 values standardized to cytochalasin B IC50 values; read-out: IC50 regarding glucose induced ATP increase (GLUT1 inhibition)
Sequence (P11166 whole entry): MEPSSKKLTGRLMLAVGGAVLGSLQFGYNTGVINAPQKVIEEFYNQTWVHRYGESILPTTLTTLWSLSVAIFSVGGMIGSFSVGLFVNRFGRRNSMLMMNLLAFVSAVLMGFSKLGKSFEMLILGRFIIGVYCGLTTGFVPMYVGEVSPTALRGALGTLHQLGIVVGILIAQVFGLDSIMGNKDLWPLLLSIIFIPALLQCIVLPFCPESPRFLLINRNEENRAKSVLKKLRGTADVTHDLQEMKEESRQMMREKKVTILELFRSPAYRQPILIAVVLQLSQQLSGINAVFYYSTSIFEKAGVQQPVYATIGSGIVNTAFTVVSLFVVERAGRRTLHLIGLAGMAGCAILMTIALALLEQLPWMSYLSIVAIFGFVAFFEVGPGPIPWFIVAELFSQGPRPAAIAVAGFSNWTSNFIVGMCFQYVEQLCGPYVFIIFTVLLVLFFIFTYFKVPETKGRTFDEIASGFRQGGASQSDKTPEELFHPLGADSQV
pIC50: −log10 of the molar value.
measuredEndpoint: pIC50

Known pIC50 results, listed for orientation:
COc1ccc(Cn2ncc(NC(=O)c3cc(C(N)=O)nc4ccccc34)c2C)cc1: 8.66
Cc1nc(Cn2ncc(NC(=O)c3cc(C(N)=O)nc4ccccc34)c2C)cs1: 6.29
COC(=O)c1c(NC(=O)c2cc(C(F)(F)F)nc3ccc(Br)cc23)cnn1Cc1ccc(C#N)cc1: 5.97

(1) Cc1c(NC(=O)c2cc(C(N)=O)nc3cc(F)c(Cl)cc23)cnn1Cc1ccc(C#N)cc1
(2) CCS(=O)(=O)N1CCC(Cn2ncc(NC(=O)c3cc(C(F)(F)F)nc4ccc(Br)cc34)c2C)CC1
(3) Cc1c(NC(=O)c2cc(C(F)(F)F)nc3ccc(Br)cc23)cnn1Cc1ccc(C#N)cc1
query: Which order do these items take when sorted by rising pIC50? List them. List labels; respect the requested ordering.
result: 2, 3, 1

(A) CC(C)c1c(NC(=O)c2cc(C(N)=O)nc3cc(F)ccc23)cnn1Cc1ccc(C#N)cc1
(B) CCc1c(NC(=O)c2cc(C(N)=O)nc3cc(F)c(Cl)cc23)cnn1Cc1ccc(C#N)cc1
query: Of A and B , whose reported pIC50 is the larger number? The response must carry the label of the picked entry.
result: B
(B: 7.37, A: 6.03)
